- experimental.target: Bifunctional glucose-6-phosphate 1-dehydrogenase/6-phosphogluconolactonase (Plasmodium falciparum (isolate 3D7), UniProt Q8IKU0)
- Sequence (Q8IKU0 whole entry): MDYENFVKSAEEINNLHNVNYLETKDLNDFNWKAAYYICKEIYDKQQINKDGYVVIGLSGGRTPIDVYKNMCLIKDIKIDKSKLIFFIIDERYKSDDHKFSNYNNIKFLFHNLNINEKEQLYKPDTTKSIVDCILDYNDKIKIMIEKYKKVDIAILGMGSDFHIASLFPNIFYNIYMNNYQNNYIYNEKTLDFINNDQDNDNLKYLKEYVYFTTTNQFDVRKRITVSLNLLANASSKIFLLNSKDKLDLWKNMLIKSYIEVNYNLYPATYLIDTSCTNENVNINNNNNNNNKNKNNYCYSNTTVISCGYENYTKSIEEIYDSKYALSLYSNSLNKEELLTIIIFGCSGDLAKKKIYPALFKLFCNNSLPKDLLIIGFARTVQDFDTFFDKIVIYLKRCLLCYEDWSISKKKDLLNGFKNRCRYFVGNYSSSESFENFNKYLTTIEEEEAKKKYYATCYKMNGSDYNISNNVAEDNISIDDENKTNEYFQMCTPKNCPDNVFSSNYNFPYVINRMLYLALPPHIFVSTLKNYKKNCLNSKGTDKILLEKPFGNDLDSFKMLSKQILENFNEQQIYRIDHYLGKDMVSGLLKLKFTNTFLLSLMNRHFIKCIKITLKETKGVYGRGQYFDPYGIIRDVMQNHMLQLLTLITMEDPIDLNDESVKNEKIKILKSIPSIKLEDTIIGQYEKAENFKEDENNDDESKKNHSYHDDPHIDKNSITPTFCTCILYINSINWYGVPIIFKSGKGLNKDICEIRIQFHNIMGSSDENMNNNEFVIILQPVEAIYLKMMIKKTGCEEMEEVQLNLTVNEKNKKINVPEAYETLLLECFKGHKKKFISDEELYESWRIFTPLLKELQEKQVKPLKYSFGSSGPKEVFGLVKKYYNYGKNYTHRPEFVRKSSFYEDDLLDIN
- assay.text: Competitive inhibition of Plasmodium falciparum G6PD-6PGL using G6P as substrate in presence of NADP+ by Lineweaver-Burk plot analysis
endpoint.name: pIC50
In textbook form, pIC50 equals minus log to base ten of the concentration in mol/L.

CCN1CCC[C@@H]1CNC(=O)c1ccc2c(c1)NC(=O)/C(=C/c1ccccc1F)S2
6.05

Continue with the next compound.
Tell me its pIC50 given `CCN1CCC[C@@H]1CNC(=O)c1ccc2c(c1)NC(=O)c1cccc(C)c1S2` as the entry.
6.72

* * *

Entries and their measured viability at 24 h, up to 1000 µM follow.
- assay.text: Cytotoxicity against human HepG2 cells assessed as cell survival at 0.2 to 1 mM after 24 hrs by EZ4U staining-based spectrophotometric analysis relative to control
- test.parameters: read-out: Survival

The cases that follow already have their viability at 24 h, up to 1000 µM on record.
CO[C@H]1O[C@H](CS(=O)(=O)CCCN)[C@@H](O)[C@H](O)[C@H]1O
> 80%
CO[C@H]1O[C@H](CNS(=O)(=O)CCNC(=N)N)[C@@H](O)[C@H](O)[C@H]1O
> 80%

Tell me its viability at 24 h, up to 1000 µM given `CO[C@H]1O[C@H](CSCCN)[C@@H](O)[C@H](O)[C@H]1O` as the entry.
> 80%

Tell me its viability at 24 h, up to 1000 µM given `CO[C@H]1O[C@H](CSCCNC(=N)N)[C@@H](O)[C@H](O)[C@H]1O` as the entry.
> 80%

Tell me its viability at 24 h, up to 1000 µM given `CO[C@H]1O[C@H](CS(=O)(=O)CCCNC(=N)N)[C@@H](O)[C@H](O)[C@H]1O` as the entry.
> 80%

Tell me its viability at 24 h, up to 1000 µM given `CO[C@H]1O[C@H](CSCCCN)[C@@H](O)[C@H](O)[C@H]1O` as the entry.
> 80%

Tell me its viability at 24 h, up to 1000 µM given `CO[C@H]1O[C@H](CS(=O)(=O)CCC#N)[C@@H](O)[C@H](O)[C@H]1O` as the entry.
> 80%

Tell me its viability at 24 h, up to 1000 µM given `CO[C@H]1O[C@H](CNS(=O)(=O)CCN)[C@@H](O)[C@H](O)[C@H]1O` as the entry.
> 80%

Tell me its viability at 24 h, up to 1000 µM given `CO[C@H]1O[C@H](CSCCC#N)[C@@H](O)[C@H](O)[C@H]1O` as the entry.
> 80%
